# Target System: UniProt:P04585
# Protocol: biochemical

- Compound: "CCCCN[C@@H](Cc1cccc2ccccc12)C(=O)NCCC[C@@H](CO)N(CC(C)C)S(=O)(=O)c1ccc(N)cc1 [Example 20]"
  Ki: "4.4 nM"
- Compound: "COc1ccc(CC(=O)N[C@@H](Cc2cccc3ccccc23)C(=O)NCCC[C@@H](CO)N(CC(C)C)S(=O)(=O)c2ccc(N)cc2)cc1 [Example 5]"
  Ki: "11 nM"
- Compound: "CC(=O)N[C@H](C(=O)NCCCC[C@@H](CO)N(CC(C)C)S(=O)(=O)c1ccc(N)cc1)C(c1ccccc1)c1ccccc1 [Example 71]"
  Ki: "1.5 nM"
